System: HPPD polypeptides
PROTOCOL_DESCRIPTION: coupled HPPD activity assay: turnover and residual turnover in crude extracts
Assay type: biochemical, Pseudomonas fluorescens
CONDITIONS_USED: 100 μM Cmpd. 1; signal change with inhibitor divided by signal change without inhibitor
READOUT_KIND: Residual turnover [%] (%)
Please give a number only; it is taken to be in %.

61 (protein, mutant HPPD polypeptide) MADLYENPMGLMGFEFIEFASPTPGTLEPIFEIMGFTKVATHRSKNVHLYRQGEINLILNNEPNSIASYFAAEHGPSVCGMAFRVKDSQKAYNRALELGAQPIHIDTGPMELNLPAIKGIGGAPLYLIDRFGEGSSIYDIDFVYLEGVERNPVGAGLKVIDHLTHNVYRGRMVYWANFYEKLFNFREARYFDIKGEYTGLTSKAMSAPDGMIRIPLNEESSKGAGQIEEFLMQFNGEGIQHVAFLTDDLVKTWDALKKIGMRFMTAPADSYYEMLEGRLPDHGEPVDQLQARGILLDGSSVEGDKRLLLQIFSETLMGPVFFEFIQRKGDDGFGPHSFKVLFESIERDQVRRGVLTAD; 40

Then this molecule:
Fill blank: measured Residual turnover [%] of the molecule 56 (protein, mutant HPPD polypeptide) MADLYENPMGLMGFEFIEFASPTPGTLEPIFEIMGFTKVATHRSKNVHLYRQGEINLILNNEPNSIASYFAAEHGPSVCGMAFRVKDSQKAYNRALELGAQPIHIDTGPMELNLPAIKGIGGAPLYLIDRFGEGSSIYDIDFVYLEGVERNPVGAGLKVIDHLTHNVYRGRMVYWANFYEKLFNFREARYFDIKGEYTGLTSKAMSAPDGMIRIPLNEESSKGAGQIEEFLMQFNGEGIQHVAFLTDDLVKTWDALKKIGMRFMTAPADNYYEMLEGRLPDHGEPVDQLQARGILLDGSSVEGDKRLLLQIFSETLMGPVFFEFIQRKGDDGFGPHSFKVLFEQIERDQVRRGVLTAD is ____. 57
